measuredTarget: T1, human TREM2 on the cell surface (human, UniProt Q9NZC2 19-230)
T1 sequence: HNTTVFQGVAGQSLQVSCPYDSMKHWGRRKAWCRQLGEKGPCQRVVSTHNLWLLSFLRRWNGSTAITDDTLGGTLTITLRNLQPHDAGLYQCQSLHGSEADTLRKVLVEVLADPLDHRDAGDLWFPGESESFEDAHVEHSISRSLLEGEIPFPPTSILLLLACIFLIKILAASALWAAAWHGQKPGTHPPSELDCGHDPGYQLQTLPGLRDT
testSummary: cell-based or functional assay
I'd be grateful if you could share measured Survival EC50 (nM), plate coated mAb, human macrophages for these entries.
Give bare numbers, in nM.

Consider the reported Survival EC50 (nM), plate coated mAb, human macrophages for these binders:
CL0020123 (antibody, V domains shown, also called Clone CL0020123) VH: EVQLQQSGAELVRSGASVKLSCTASGFSIEDFYIHWVKQRPEQGLEWIGWIDPENGDSKYAPKFQGKATMTADTSSNTAYLHLSSLTSEDTAVYYCHADHGNYGSTMDYWGQGTSVTVSS VL: DIQMNQSPSSLSASLGDTVTITCHASQHINVWLSWYQQKPGDHPKLLIYKASNLHTGVPSRFSGSGSGTGFTLTISSLQPEDIATYYCQQGQTYPRTFGGGTKLEIK    44.7
CL0020188 (antibody, V domains shown, also called Clone CL0020188) VH: EVKLLDSGGGLVQAGGSLRLSCAGSGFTFTDFYMSWIRQPPGKAPEWLGVIRNKANGYTAGYNPSVKGRFTISRDNTQNILYLQMNTLRAEDTAIYYCARLTYGFDYWGQGVMVTVSS VL: DIVMTQGALPNPVPSGESASITCQSSKSLLHSNGKTYLNWYLQRPGQSPQLLIYWMSTRASGVSDRFSGSGSGTDFTLKISSVEAEDVGVYYCQQFLEYPFTFGSGTKLEIK    2.4
CL0020096 (antibody, V domains shown, also called Clone CL0020096) VH: QIQLVQSGPELRKPGETVKISCKASGYTFTTYGMSWVKQAPGKGLKWMGWINTYSGLPRHSDDFKGRFAFSLETSASTAYLQINNLKNEDTATYFCAREVYYGSRKTAWFAYWGQGTLVTVSA VL: DLVMSQSPSSLAVSVGERVTMSCKSSQSLLYSNDQKNYLAWYQQIPGQSPKLLIYWASTRESGVPDRFTGSGSGTDFTLTISSVKAEDLAVYFCQQYYSYPPTFGAGTKLELK    1.8

Return reported Survival EC50 (nM), plate coated mAb, human macrophages values for all items listed beneath this line.
1. CL0020309 (antibody, V domains shown, also called Clone CL0020309) VH: QVQLKQSGPSLVQPSQSLSITCTVSGFSLTSYGVQWVRQSPGKGLEWLGVIWTGGTTDFNAAFKSRLSITKDNSKSQVFFKMNSLQADDSAIYYCAKIGFHSAVDYWGQGTSVTVSS VL: DVLMTQTPLSLPVSLGDQASISCRSSQNIVHSNGNTYLEWYLQKPGQSPKLLIYKVSNRFSGVPDRFSGSGSGTDFTLKINRVEAEDLGLYYCFQGSHIPFTFGSGTQLEIK
2. CL0020107 (antibody, V domains shown, also called Clone CL0020107) VH: QVQLQQPGAELVKPGASVKMSCRASGYTFTNYWISWVKQRPGQGLEWIGDIYPHSTSTNYNERFRSKATLTVDKSSTTAYMQLSSLTSEDSAVYYCAREGFGISAWGQGTTLTVSS VL: QIVLTQSPAIMSASPGEKVTITCSATSSVSYMHWFQQKPGTSPKLWIYSTSNLASGVPARFSGSGSGTSHSLTISRMEAEDAATYYCQQRSSYPLTFGSGTKLELK
3. CL0020201 (antibody, V domains shown, also called Clone CL0020201) VH: EVQLQQSGPVLVKPGASVRMSCKPSGYTFTDYYMNWVKQSHGKSLEWIGSINPYTGGSSYNQNFRGKATLTVDKSSSTAYMELNSLTSEDSAVYYCARGSYYSNLGFAYWGQGTLVTVSA VL: DVQLTQSPSFLTASPGETITINCRASKSISKYLAWYQEKPGKTNKLLISSGSTLQSGIPSRFSGSGSGTDFTLTISSLEPEDFAMYYCQQYSEYPFTFGSGTKLEIK
4. CL0020141 (antibody, V domains shown, also called Clone CL0020141) VH: EVTLVESGGGLVQPGGSLRLSCATSGFTFTDYYMSWVRQPPGKALEWLGFIRDKANGYTTDYSASVKGRFTISRDNSQNILYLQMNTLRAEDSATYYCSRLLRAQGFAYWGQGTLVTVSA VL: DIVMSQSPSSLGVSIGEKVIMSCTSGQSLLYSNNQKNYLAWYQQKPGQSPKLLIYWASTRESGVPDRFTGSGSGTDFTLTINSVKAEDLAVYYCQQYYRNPFTFGSGTKLEIK

1. 2.69
2. 0.53
3. 6.6
4. 2
